System: RAW264.7
Experiment: Antiinflammatory activity in mouse RAW264.7 cells assessed as inhibition of LPS-induced nitric oxide production preincubated for 30 mins followed by LPS stimulation measured after 24 hrs by Griess assay
Assay type: functional, cell-based
I'd appreciate it if you could supply log10(IC50) values for the items below.
Scale: decimal log of IC50, IC50 in µM.

C/C=C(/C)C(=O)O[C@H]1[C@H](OC(=O)/C(C)=C\C)[C@H](OC(=O)/C(C)=C\C)[C@@H](O)[C@@H](OC(=O)/C(C)=C\C)[C@@H]1O | 1.00
C/C=C(/C)C(=O)O[C@@H]1[C@H](OC(C)=O)[C@@H](OC(C)=O)[C@@H](OC(=O)/C(C)=C\C)[C@H](O)[C@H]1OC(=O)/C(C)=C\C | 0.85
C/C=C(/C)C(=O)O[C@@H]1[C@H](O)[C@@H](OC(C)=O)[C@@H](OC(=O)/C(C)=C\C)[C@H](OC(=O)/C(C)=C\C)[C@H]1O | 1.08
Cc1ccc(-c2cc(C(F)(F)F)nn2-c2ccc(S(N)(=O)=O)cc2)cc1 | 0.20
C/C=C(/C)C(=O)O[C@@H]1[C@@H](O)[C@H](OC(=O)/C(C)=C\C)[C@@H](OC(=O)/C(C)=C\C)[C@H](O)[C@@H]1O | 1.37
C/C=C(/C)C(=O)O[C@@H]1[C@@H](O)[C@H](OC(=O)/C(C)=C\C)[C@@H](OC(=O)/C(C)=C\C)[C@H](O)[C@@H]1OC(=O)C(C)C | 0.88
C/C=C(/C)C(=O)O[C@@H]1[C@@H](O)[C@@H](OC(=O)/C=C(\C)CC)[C@H](O)[C@@H](O)[C@@H]1OC(=O)/C(C)=C\C | 0.92
C/C=C(/C)C(=O)O[C@@H]1[C@@H](O)[C@H](OC(=O)/C(C)=C\C)[C@H](OC(=O)/C(C)=C\C)[C@@H](O)[C@H]1OC(=O)/C(C)=C\C | 0.85

Would you mind giving log10(IC50) for every molecule in the list below?
1. C/C=C(/C)C(=O)O[C@@H]1[C@@H](O)[C@H](OC(=O)/C(C)=C\C)[C@@H](OC(=O)/C(C)=C\C)[C@H](O)[C@@H]1OC(C)=O
2. C/C=C(/C)C(=O)O[C@@H]1[C@@H](O)[C@H](OC(=O)/C(C)=C\C)[C@@H](OC(=O)/C(C)=C\C)[C@@H](OC(=O)/C(C)=C\C)[C@H]1O
3. C/C=C(/C)C(=O)O[C@@H]1[C@@H](O)[C@@H](OC(=O)/C(C)=C\C)[C@@H](OC(=O)/C(C)=C\C)[C@H](O)[C@H]1OC(=O)/C(C)=C\C
4. C/C=C(/C)C(=O)O[C@H]1[C@H](O)[C@@H](O)[C@H](OC(=O)/C(C)=C\C)[C@H](OC(=O)/C(C)=C\C)[C@H]1O

1. 0.98
2. 1.28
3. 0.99
4. 0.95
